Assay: Elimination t1/2 of Compound 1 in mice
Details: mouse, in vivo
Result type: half-life

Query block: Retrieve half-life measured for `Cc1cn2c(nc1=O)O[C@H]1[C@H](O)[C@@H](CO)O[C@H]12` and print it.
Result block: 1 to 2 h

Value source: patent US12667571B2
